Task for the reader: assign each of the following compounds its reported hERG current change (%, negative = inhibition) at 10uM.
Molecular target: human ether-à-go-go-related gene (hERG) potassium channel (human, UniProt Q12809);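 note: peak tail current of the secondary pulse compared with the same well before compound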
Sequence (Q12809 whole entry, looked up): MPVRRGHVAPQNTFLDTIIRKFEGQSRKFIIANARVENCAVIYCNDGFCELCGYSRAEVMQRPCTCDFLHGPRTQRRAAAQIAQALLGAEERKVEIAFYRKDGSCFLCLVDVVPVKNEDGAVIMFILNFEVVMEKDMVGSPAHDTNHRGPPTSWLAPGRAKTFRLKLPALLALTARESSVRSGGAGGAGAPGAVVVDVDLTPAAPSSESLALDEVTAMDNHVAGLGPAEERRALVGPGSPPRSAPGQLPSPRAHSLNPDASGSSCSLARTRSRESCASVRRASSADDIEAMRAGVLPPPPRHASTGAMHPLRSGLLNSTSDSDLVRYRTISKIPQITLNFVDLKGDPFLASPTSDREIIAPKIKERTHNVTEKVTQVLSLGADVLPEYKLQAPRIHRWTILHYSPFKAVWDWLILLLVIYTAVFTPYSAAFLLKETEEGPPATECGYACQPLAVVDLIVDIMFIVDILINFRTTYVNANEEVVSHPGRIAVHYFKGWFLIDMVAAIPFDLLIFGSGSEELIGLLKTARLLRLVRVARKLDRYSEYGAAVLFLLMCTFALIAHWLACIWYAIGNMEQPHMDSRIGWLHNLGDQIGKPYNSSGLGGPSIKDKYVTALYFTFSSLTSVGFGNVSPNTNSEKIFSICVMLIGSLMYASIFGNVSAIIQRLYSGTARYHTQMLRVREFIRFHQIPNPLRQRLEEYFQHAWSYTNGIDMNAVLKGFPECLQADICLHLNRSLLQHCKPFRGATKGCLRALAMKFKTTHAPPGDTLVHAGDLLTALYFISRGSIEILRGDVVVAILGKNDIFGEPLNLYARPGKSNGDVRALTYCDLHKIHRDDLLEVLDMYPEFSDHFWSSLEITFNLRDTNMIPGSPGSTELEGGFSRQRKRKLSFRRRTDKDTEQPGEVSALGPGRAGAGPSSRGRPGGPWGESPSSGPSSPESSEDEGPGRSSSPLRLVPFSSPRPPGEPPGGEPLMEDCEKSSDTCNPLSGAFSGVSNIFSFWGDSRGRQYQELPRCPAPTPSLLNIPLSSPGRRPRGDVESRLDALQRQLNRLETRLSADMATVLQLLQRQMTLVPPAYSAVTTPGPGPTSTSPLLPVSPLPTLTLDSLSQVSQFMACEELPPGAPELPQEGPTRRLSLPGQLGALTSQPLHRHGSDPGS
Experiment: primary screen, population patch clamp on CHO cells stably expressing hERG; higher = less effect of the substance
About 14,000 (4.5%) of roughly 310,000 compounds showed an effect of 50% or more. Effects have a minus sign here. This is one part of a sample in which strong results are shown more often than they occur.

>  <compound>
O=C(NCc1ccc(Cl)cc1)C1CCCN(c2ncnc3c2nc2n3CCCCC2)C1 (stereo not drawn)

>  <endpoint-value>
-55.4%

$$$$
>  <compound>
CC(=O)Nc1ccc(N(C(=O)c2cnccn2)C(C(=O)NC2CCCCC2)c2ccc(F)cc2)cc1 (stereo not drawn)

>  <endpoint-value>
0.645%

$$$$
>  <compound>
CCC(C)C(NC(=O)C1CCC(C)CC1)C(=O)NC(C(=O)OC)C(C)C (stereo not drawn)

>  <endpoint-value>
-0.903%

$$$$
>  <compound>
Cc1cc(C(=O)c2ccc3ccccc3c2)c(C)o1

>  <endpoint-value>
2.09%

$$$$
>  <compound>
COc1cc(NC(=O)C2CCCN(c3ncnc4c3nc3n4CCCCC3)C2)cc(OC)c1OC (stereo not drawn)

>  <endpoint-value>
-6.46%

$$$$
>  <compound>
O=C(Cc1ccccc1)Nc1cccc(N2C(=O)C=CC2=O)c1

>  <endpoint-value>
-4.45%

$$$$
>  <compound>
C=CCn1c(Cc2ccccc2)nc2c(cnn2-c2ccccc2)c1=O

>  <endpoint-value>
-34.8%

$$$$
>  <compound>
COc1ccccc1CNC(=O)C1CCN(c2ncnc3c2nc2n3CCCCC2)CC1

>  <endpoint-value>
6.69%

$$$$

Turning now to a further compound:
# query: hERG current change (%, negative = inhibition) at 10uM of entry Cc1ccccc1CN1CCC(CNC(=O)C2CCCN(c3ncnc4c3nc3n4CCCCC3)C2)CC1 (stereo not drawn)
-7.3%
